System: pigweed
assay_notes: Test D postemergence
Format: in vivo, Amaranthus retroflexus
study_conditions: Postemergence, 125 g ai/ha, scale 0 to 100
measurement_label: Pigweed plant response rating
When you answer, write just the number.

Past entries and their recorded results:
CCCc1cc(C(=O)NC2CC2)nn1Cc1cc(C(F)(F)F)nn1C 80
CCc1cc(C(=O)NCC(F)(F)F)nn1Cc1ccnc(SC(F)(F)F)c1 90
CCCc1cc(C(=O)NC(C)C)nn1Cc1cc(C(F)(F)F)nn1C 75

Now for another entry.
Specify Pigweed plant response rating for O=C(NC1CC1)c1cc(CCF)n(Cc2ccnc(C(F)(F)F)c2)n1 and stop.
70
